assay-target: Recombinant Human Anaplastic Lymphoma Kinase (Homo sapiens, UniProt Q9UM73)
Construct: purchased Invitrogen, Carlsbad, Calif
Sequence (Q9UM73 19-1620): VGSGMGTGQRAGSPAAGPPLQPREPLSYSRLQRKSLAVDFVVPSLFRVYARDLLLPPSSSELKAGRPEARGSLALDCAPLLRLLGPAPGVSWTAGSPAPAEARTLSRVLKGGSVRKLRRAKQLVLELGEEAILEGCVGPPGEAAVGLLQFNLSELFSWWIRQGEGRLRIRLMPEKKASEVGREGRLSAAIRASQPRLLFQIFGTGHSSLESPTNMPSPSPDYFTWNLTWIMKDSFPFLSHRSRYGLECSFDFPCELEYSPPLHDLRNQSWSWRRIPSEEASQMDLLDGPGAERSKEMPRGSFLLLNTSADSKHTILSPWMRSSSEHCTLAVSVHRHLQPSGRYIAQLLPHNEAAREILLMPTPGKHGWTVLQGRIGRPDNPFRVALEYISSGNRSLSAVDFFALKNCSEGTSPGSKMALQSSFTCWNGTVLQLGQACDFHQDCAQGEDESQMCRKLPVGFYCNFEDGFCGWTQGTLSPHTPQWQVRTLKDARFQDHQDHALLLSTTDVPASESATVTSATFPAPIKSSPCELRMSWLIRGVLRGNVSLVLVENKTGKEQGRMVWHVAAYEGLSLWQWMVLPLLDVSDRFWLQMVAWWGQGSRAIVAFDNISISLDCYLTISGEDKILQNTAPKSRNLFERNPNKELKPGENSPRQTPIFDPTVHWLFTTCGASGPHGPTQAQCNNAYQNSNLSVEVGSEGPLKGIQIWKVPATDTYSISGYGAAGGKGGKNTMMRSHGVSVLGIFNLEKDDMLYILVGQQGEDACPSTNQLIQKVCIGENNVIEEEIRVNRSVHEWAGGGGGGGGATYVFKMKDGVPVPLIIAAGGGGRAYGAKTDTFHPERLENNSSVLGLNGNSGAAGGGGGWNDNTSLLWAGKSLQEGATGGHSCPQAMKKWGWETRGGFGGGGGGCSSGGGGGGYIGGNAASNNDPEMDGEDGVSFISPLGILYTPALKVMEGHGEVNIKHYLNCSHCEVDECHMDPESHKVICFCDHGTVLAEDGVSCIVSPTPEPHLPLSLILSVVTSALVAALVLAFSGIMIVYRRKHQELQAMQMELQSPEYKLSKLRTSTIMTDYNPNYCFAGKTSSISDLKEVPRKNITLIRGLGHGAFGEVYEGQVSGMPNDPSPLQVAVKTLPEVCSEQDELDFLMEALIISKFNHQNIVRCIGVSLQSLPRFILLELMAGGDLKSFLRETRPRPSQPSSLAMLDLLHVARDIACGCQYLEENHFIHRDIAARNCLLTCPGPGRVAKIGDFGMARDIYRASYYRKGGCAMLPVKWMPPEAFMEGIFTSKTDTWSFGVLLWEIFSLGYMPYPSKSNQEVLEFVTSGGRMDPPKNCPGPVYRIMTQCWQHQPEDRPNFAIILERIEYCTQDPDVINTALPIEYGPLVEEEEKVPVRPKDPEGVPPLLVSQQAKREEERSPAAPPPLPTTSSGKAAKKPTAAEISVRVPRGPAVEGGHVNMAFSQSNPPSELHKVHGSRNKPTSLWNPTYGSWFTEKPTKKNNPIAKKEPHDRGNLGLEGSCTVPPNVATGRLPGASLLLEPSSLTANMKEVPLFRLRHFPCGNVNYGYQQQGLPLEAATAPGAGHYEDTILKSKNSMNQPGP
assay-name: ALK HTRF kinase assay
Assay type: biochemical
test-context: compound at 500 nM or 1 mM; 90 μM ATP
Counter-ions that a name gives are not always drawn.
Parameter threshold = 30%. Response is MET when ALK % of inhibition at a concentration of 500 nM or 1 mM meets or exceeds it, else NOT MET.

Query :: State whether the measured ALK % of inhibition at a concentration of 500 nM or 1 mM reaches 30%, counting equality as reaching it, for NS(=O)(=O)N1CCCC(C(=O)Nc2ccc3cc2CCc2cccc(c2)Nc2ncc(Cl)c(n2)N3)C1 (stereo not shown) [Example A73, trifluoroacetate]
Result :: MET
